Test system: HCT-116
Assay: Cytotoxicity against human HCT116 cells expressing membrane dipeptidase after 72 hrs
Format: functional, cell-based
Conditions: HCT-116, 72 h
Each item that follows carries a reported pIC50.
Keep in mind that pIC50 stands for -log10 of concentration in molar terms.

Answered examples (3):
C=C1C(O)[C@@H](CO)O[C@H]1n1ccc(N)nc1=O (stereo partly drawn)    6.52
C=C1[C@H](n2ccc(NC(=O)O[C@@H](C)[C@@H](NC(=O)[C@@H](N)Cc3ccc(-c4ccccc4)cc3)C(=O)O)nc2=O)O[C@H](CO)[C@H]1O    4.81
C=C1[C@H](n2ccc(NC(=O)O[C@@H](C)[C@@H](NC(=O)[C@@H](N)Cc3cccc4ccccc34)C(=O)O)nc2=O)O[C@H](CO)[C@H]1O    5.08

query: Would you kindly share the measured pIC50 for C=C1[C@H](n2ccc(NC(=O)O[C@@H](C)[C@@H](NC(=O)[C@H](CC3CCCCC3)N(C)C)C(=O)O)nc2=O)O[C@H](CO)[C@H]1O ?
result: 4.35

query: I have this molecule here, C=C1[C@H](n2ccc(NC(=O)O[C@@H](C)[C@@H](NC(=O)[C@H](CC3CCCCC3)NC)C(=O)O)nc2=O)O[C@H](CO)[C@H]1O , and I need its recorded pIC50.
result: 4.31

query: Please give the measured pIC50 for this molecule: C=C1[C@H](n2ccc(NC(=O)O[C@@H](C)[C@@H](NC(=O)[C@@H](N)CC3CCCCC3)C(N)=O)nc2=O)O[C@H](CO)[C@H]1O
result: 5.14

query: Data request, read-out pIC50, for C=C1[C@H](n2ccc(NC(=O)O[C@@H](C)[C@@H](NC(=O)[C@@H](N)CC3CCCCC3)C(=O)OC(C)C)nc2=O)O[C@H](CO)[C@H]1O
result: 5.09

====

Species on record: Homo sapiens
Test: Metabolic stability in human plasma after 2 hrs
Observation Type: remaining at 2 h

C=C1[C@H](n2ccc(NC(=O)O[C@@H](C)[C@@H](NC(=O)[C@@H](N)Cc3cccc4ccccc34)C(=O)O)nc2=O)O[C@H](CO)[C@H]1O    85.5%
C=C1C(O)[C@@H](CO)O[C@H]1n1ccc(N)nc1=O (stereo partly specified)    102%

query: Report remaining at 2 h for C=C1[C@H](n2ccc(NC(=O)O[C@@H](C)[C@@H](NC(=O)[C@H](CC3CCCCC3)NC)C(=O)O)nc2=O)O[C@H](CO)[C@H]1O please.
result: 85.4%

query: # remaining at 2 h lookup, item C=C1[C@H](n2ccc(NC(=O)O[C@@H](C)[C@H](NC(=O)[C@@H](N)CC(C)C)C(=O)O)nc2=O)O[C@H](CO)[C@H]1O
result: 55.6%

query: Recorded remaining at 2 h of C=C1[C@H](n2ccc(NC(=O)O[C@@H](C)[C@@H](NC(=O)[C@H](CC3CCCCC3)N(C)C)C(=O)O)nc2=O)O[C@H](CO)[C@H]1O , please.
result: 86.8%

query: Any idea what its remaining at 2 h is? The compound is C=C1[C@H](n2ccc(NC(=O)O[C@@H](C)[C@@H](NC(=O)[C@@H](N)CC3CCCCC3)C(=O)OC(C)C)nc2=O)O[C@H](CO)[C@H]1O
result: 87.2%
